Every entry's value here was drawn from patent US20210079109A1.

Give kon for every item shown.
test_target: T1, recombinant human CD63 extracellular loop 2 expressed with a C-terminal human Fc tag (human)
T1 construct: also called hCD63 EC loop 2-hFc; human CD63 EC loop 2-Fc
T1 sequence (chain, as listed by the source limits assumed): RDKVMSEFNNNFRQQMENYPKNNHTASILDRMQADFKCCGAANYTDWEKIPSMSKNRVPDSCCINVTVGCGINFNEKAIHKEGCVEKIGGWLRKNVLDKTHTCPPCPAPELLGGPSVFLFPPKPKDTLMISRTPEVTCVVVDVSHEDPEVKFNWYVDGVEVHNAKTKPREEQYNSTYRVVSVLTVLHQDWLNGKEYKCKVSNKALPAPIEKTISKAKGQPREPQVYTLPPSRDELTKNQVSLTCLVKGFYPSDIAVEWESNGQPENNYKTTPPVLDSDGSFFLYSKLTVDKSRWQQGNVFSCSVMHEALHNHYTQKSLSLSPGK
assay_text: SPR Biacore, mAb captured, 37C
Number plus unit, in that order.

Exercise: Could you share which kon value was measured for H2M12450N (antibody, V domains shown, also called H2aM12450N; mAb12450) VH: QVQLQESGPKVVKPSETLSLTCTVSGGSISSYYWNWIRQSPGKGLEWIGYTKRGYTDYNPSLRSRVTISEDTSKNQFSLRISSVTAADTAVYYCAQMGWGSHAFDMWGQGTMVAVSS VL: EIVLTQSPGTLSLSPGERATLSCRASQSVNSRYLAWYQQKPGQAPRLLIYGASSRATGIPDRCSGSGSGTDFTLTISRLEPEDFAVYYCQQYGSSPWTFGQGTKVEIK ?
Solution: 411000 M⁻¹ s⁻¹

Exercise: What kon value was documented for this binder, H1M12362N (antibody, V domains shown) VH: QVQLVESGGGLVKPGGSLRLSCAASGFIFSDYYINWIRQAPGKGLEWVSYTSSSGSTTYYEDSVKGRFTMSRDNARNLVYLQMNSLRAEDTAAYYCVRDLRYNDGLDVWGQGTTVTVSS VL: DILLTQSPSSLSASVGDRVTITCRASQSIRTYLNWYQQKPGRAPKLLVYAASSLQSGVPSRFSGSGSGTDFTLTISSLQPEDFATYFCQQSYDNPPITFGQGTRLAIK ?
Solution: 685000 M⁻¹ s⁻¹

Attention now turns to another entry.
Exercise: kon lookup needed for H1M12388N (antibody, V domains shown) VH: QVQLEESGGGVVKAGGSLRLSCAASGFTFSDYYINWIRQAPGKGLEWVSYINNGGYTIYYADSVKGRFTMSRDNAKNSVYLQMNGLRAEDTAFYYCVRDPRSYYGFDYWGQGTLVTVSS VL: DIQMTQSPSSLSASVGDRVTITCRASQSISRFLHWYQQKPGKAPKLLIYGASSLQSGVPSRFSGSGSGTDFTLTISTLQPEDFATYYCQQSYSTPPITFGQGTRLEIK , thanks.
Solution: 1.03e+06 M⁻¹ s⁻¹
